- Tested on: T-47D breast
- ASSAY METHOD TEXT: NCI-60 one-dose screen, 48 h (100 = growth as untreated, 0 = no growth, -100 = all killed)
- RECORDED CONDITIONS: 10 µM
The panel holds about 83,000 compounds, 20% with a hit somewhere; the sample as a whole holds those more often.
ENDPOINT NAME: growth (%)
One number for each entry, in %.

See these solved cases before continuing.
MOLECULE	MEASURED RESULT
CCC12CCC3c4ccc(O)cc4CCC3C1CC(O)C2O (stereo unspecified)	93.9
CN1CCN(c2ccc3nc(-c4ccc5nc(-c6ccc(C(F)(F)F)cc6)[nH]c5c4)[nH]c3c2)CC1	57.9
CCOC(=O)c1cn2c3c(cc(F)cc3c1=O)C(CC)c1ccccc1C2 (stereo unspecified)	93.1
Cn1cc(C(=O)NCCC(=N)N)cc1NC(=O)CN=C(N)N	110
COc1cc(/C=C/C(=O)CC(=O)/C=C/c2cc(Br)c(OC)c(OC)c2)cc(Br)c1OC	83.7

Dear colleague, could you please provide growth for the molecules listed below?
1. Cc1ccc2nc(NC(=O)CSC(=S)N3CCN(C)CC3)sc2c1
2. CSc1ccc(OC(C)=O)cc1C
3. O=C1NC(=O)C(CSc2ccccc2)(c2ccccc2)N1 (stereo unspecified)

1. 105
2. 90.6
3. 93.4

Dear colleague, could you please provide growth for the molecules listed below?
1. Cc1nc2cc(Nc3nc(N4CCOCC4)nc(N4CCN(C)CC4)n3)ccc2n1Cc1ccccc1
2. O=c1onc(-c2ccccc2)c2ccccc12
3. CCCCCCCCCCCCSC1=CC(=O)C=CC1=O

1. 99.6
2. 97.8
3. 30.6

----------
- Test system: 786-0 renal
- ASSAY METHOD TEXT: NCI-60 one-dose screen, 48 h
- RECORDED CONDITIONS: 10 µM unless noted
This is part of a sample that, as a whole, favours compounds with a hit. Of some 83,000 tested, about 20% had one in any assay. The source made the active and inactive calls. How the source made its calls: active means growth percent below 10; inactive means the rest.
Pick from T (active), F (inactive) when you respond.

Check out these entries, answers already filled in.
COMPOUND	ANSWER LABEL
COc1ccc(C2=NOC(CC(=O)N(CCO)CCO)C2)cc1OC1CCCC1 (centres undefined)	F
O=C1N/C(=C\c2ccccc2)c2ncccc21	F
Cc1ccc(C(=O)Nc2ccccc2N)cc1	F
Nc1nc(-c2ccnc(Cl)c2)nn1-c1nc2ccccc2s1	F
O=C1/C(=C/c2ccccc2F)CNC/C1=C\c1ccccc1F	T
Cc1cc(Cl)c2c(Cl)ccc(Cl)c2n1	F
O=C(CC(O)c1ccccc1)Nc1ccccn1 (centres undefined)	F
Brc1ccc(Br)nn1	T
CC(=O)Nc1ccccc1-c1n[nH]c(=O)[nH]c1=O	F
O=C(NCc1cccnc1)c1ccc([N+](=O)[O-])o1	T

Dear colleague, could you share the recorded outcome for C=C(C)CCCC(C)CC#N (centres undefined) when you have a moment?
F

Dear colleague, could you share the recorded outcome for "C=CC[P+](c1ccccc1)(c1ccccc1)c1ccccc1" when you have a moment?
F

Dear colleague, could you share the recorded outcome for O=C(N/N=C/c1ccc(OC(F)F)c(OC2CCCC2)c1)c1cnn2c1NC(c1ccccc1)C2 (centres undefined) when you have a moment?
F

Dear colleague, could you share the recorded outcome for "O=S(=O)(/N=C1C=C/C(=N\S(=O)(=O)c2ccccc2)c2ccccc2\1)c1ccccc1" when you have a moment?
F

Dear colleague, could you share the recorded outcome for "CCN(CC)CCCNc1ccc(C)c2sc3ccccc3c(=O)c12" when you have a moment?
F

Dear colleague, could you share the recorded outcome for "c1ccc(-c2n(Cc3ccc4ccccc4n3)c3ccccc3[n+]2Cc2ccc3ccccc3n2)cc1" when you have a moment?
F

Dear colleague, could you share the recorded outcome for "CCCC1=NNC(=O)C1" when you have a moment?
F

----------
- System: HCT-116 colon
- ASSAY METHOD TEXT: NCI-60 one-dose screen, 48 h (100 = growth as untreated, 0 = no growth, -100 = all killed)
- RECORDED CONDITIONS: 10 µM unless noted
This is part of a sample that, as a whole, favours compounds with a hit. Of some 83,000 tested, about 20% had one in any assay.
ENDPOINT NAME: growth (%)
One number for each entry, in %.

See these solved cases before continuing.
INPUT SMILES	growth [%]
Clc1ccc2c(c1)C[C@H]1C[C@@H](c3cccs3)N2O1	105
CN(C)C(=S)SCN1C(=O)c2ccc([N+](=O)[O-])cc2S1(=O)=O	95.7
COc1cc2nc(N3CCC[C@H](NC4=CC(=O)c5ccccc5C4=O)C3)nc(N)c2cc1OC	-85.3
Cc1nc2nc(C(F)(F)F)[nH]c2nc1C	101
O=C(NCc1cccnc1)c1ccc([N+](=O)[O-])o1	-4.08

With those in mind, consider the next compound.
For the compound shown here, "CN1CCN(C(=O)OCCOCCOC(=O)N2CCN(C)CC2)CC1" , give the reported growth.
94.8

----------
- Tested on: MALME-3M melanoma
- ASSAY METHOD TEXT: NCI-60 one-dose screen, 48 h
- RECORDED CONDITIONS: 10 µM unless noted
Compounds without any hit were thinned out: in the full panel of roughly 83,000, 20% have a hit. Active and inactive are the calls of the source. Rule for the calls: active = growth percent below 10; inactive = the rest.
Pick from active, inactive when you respond.

Check out these entries, answers already filled in.
COMPOUND	ANSWER LABEL
COc1ccc(/C=N\N2CCOCC2)cc1OC1CCCC1	inactive
CCOC(=O)c1cn2c3c(cc(F)cc3c1=O)C(CC)c1ccccc1C2 (stereo unspecified)	inactive
COc1ccc(-c2csc3c2-n2cccc2C3=O)cc1O	inactive
Clc1ccc(C2=Nc3cccc4cccc(c34)N2)cc1Cl	inactive

Dear colleague, could you share the recorded outcome for "COc1ccccc1-n1c(SCc2cc(OC)c(OC)c(OC)c2)nc2ccc(Cl)cc2c1=O" when you have a moment?
inactive

Dear colleague, could you share the recorded outcome for COc1ccc(OC)c(C2C(C#N)=C(N)Oc3cc(O)ccc32)c1 (stereo unspecified) when you have a moment?
inactive

Dear colleague, could you share the recorded outcome for "COC(=O)c1c2c(c(C)[n+]([O-])c1C)C(=O)C=C(NCc1ccc(F)cc1)C2=O" when you have a moment?
active

Dear colleague, could you share the recorded outcome for "Cc1c(C(=O)Nc2nc(-c3ccccc3)cs2)nnn1-c1ccccc1Br" when you have a moment?
inactive

Dear colleague, could you share the recorded outcome for "COc1ccc2c(c1)c(=O)oc1c(C)c(OCC(C)=O)ccc12" when you have a moment?
inactive

Dear colleague, could you share the recorded outcome for "Cc1ccc(-c2c3c(N)c4c(nc3nc3c2c(C)nn3-c2ccccc2)CCCC4)cc1" when you have a moment?
inactive

Dear colleague, could you share the recorded outcome for "COc1ccc(-c2nc3sc(C)cn3c2/C=C/C(=O)c2cc(OC)c(OC)c(OC)c2)cc1" when you have a moment?
inactive

----------
- Test system: HOP-62 NSCLC
- ASSAY METHOD TEXT: NCI-60 one-dose screen, 48 h
- RECORDED CONDITIONS: 10 µM unless noted
The panel holds about 83,000 compounds, 20% with a hit somewhere; the sample as a whole holds those more often. Calls of active or inactive are those of the source. The calls were made as follows: active = growth percent below 10; inactive = the rest.
Pick from active, inactive when you respond.

Check out these entries, answers already filled in.
COMPOUND	ANSWER LABEL
Nc1c(Br)cc(Br)cc1-c1n[nH]c(=O)[nH]c1=O	inactive
O=C(NC1CC1)c1cc2n(n1)CC(c1ccccc1)N2 (stereo unspecified)	inactive
COc1cc2oc(-c3ccc(O)cc3)cc(=O)c2c(O)c1I	inactive
Clc1ccc2c(N3CCN(c4ccnc(NC5CCCCC5)n4)CC3)ccnc2c1	inactive

Dear colleague, could you share the recorded outcome for "N#Cc1ccc(C(F)(F)F)nc1N1CCC(C(=O)Nc2ccc(Cl)cc2)CC1" when you have a moment?
inactive

Dear colleague, could you share the recorded outcome for "COC(=O)[C@@]12CC[C@@H](C)[C@]3(C[C@@H](c4ccoc4)OC3=O)[C@H]1CC[C@@H]1O[C@@]12C" when you have a moment?
inactive

Dear colleague, could you share the recorded outcome for "COc1ccc(/C=C2\SC(=O)N(CN3CCN(c4cc5c(cc4F)c(=O)c(C(=O)O)cn5C4CC4)CC3)C2=O)cc1" when you have a moment?
inactive

Dear colleague, could you share the recorded outcome for "O=C1c2c(c3c4cc(Br)ccc4[nH]c3c3ccc4ccccc4c23)C(=O)N1O" when you have a moment?
inactive

Dear colleague, could you share the recorded outcome for CC(C)NCC(O)COc1ccc(CCOCC2CC2)cc1 (stereo unspecified) when you have a moment?
inactive

Dear colleague, could you share the recorded outcome for "O=c1c2cc(F)ccc2oc2c(NCCNCCO)nc3ccccc3c12" when you have a moment?
inactive

Dear colleague, could you share the recorded outcome for "O=c1[nH]c(-c2ccccn2)nc2sc3c(c12)CCCCCC3" when you have a moment?
inactive

----------
- Tested on: NCI-H522 lung
- ASSAY METHOD TEXT: NCI-60 one-dose screen, 48 h
- RECORDED CONDITIONS: 10 µM
The panel holds about 83,000 compounds, 20% with a hit somewhere; the sample as a whole holds those more often. Active and inactive are the calls of the source. How the source made its calls: active means growth percent below 10; inactive means the rest.
Pick from 1.0 for active, 0.0 for inactive when you respond.

Check out these entries, answers already filled in.
MOLECULE	ANSWER LABEL
Cc1ccc(C2SCC(=O)N2NC(=O)c2[nH]c3ccc(F)cc3c2-c2ccccc2)cc1 (stereo not given)	0.0
O=C1C2CC3C(CC2C(=O)[N]1[Sn]([c]1ccccc1)([c]1ccccc1)[c]1ccccc1)C1(Cl)C(Cl)=C(Cl)C3(Cl)C1(Cl)Cl (stereo not given)	1.0
CCCCCCCCCCCCSC1=CC(=O)C=CC1=O	1.0
COc1ccc(/C=N/OCC(O)CN2CCC(O)CC2)cc1OC1CCCC1 (stereo not given)	0.0

Please look at the following molecule next.
Dear colleague, could you share the recorded outcome for "COc1ccc2c(c1)c(=O)oc1c(C)c(OCC(C)=O)ccc12" when you have a moment?
0.0
